Target: T1, FANCL URD-RING fragment (FANCL^UR) (human, UniProt Q9NW38 109-375)
T1 sequence: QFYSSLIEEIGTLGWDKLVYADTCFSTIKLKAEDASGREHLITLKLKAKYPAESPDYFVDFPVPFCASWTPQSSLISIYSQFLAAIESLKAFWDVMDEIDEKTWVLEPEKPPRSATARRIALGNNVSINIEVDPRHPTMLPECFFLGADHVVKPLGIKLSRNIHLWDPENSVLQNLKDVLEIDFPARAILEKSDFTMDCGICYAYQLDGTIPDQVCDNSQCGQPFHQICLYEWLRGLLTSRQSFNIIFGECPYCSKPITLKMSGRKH
Test: ITC

binder: Ube2T K91A (enzyme) MQRASRLKRELHMLATEPPPGITCWQDKDQMDDLRAQILGGANTPYEKGVFKLEVIIPERYPFEPPQIRFLTPIYHPNIDSAGRICLDVLALPPKGAWRPSLNIATVLTSIQLLMSEPNPDDPLMADISSEFKYNKPAFLKNARQWTEKHARQKQKADEEEMLDNLPEAGDSRVHNSTQKRKASQLVGIEKKFHPDV
binding result: binds
//
binder: Ube2T K95A (enzyme) MQRASRLKRELHMLATEPPPGITCWQDKDQMDDLRAQILGGANTPYEKGVFKLEVIIPERYPFEPPQIRFLTPIYHPNIDSAGRICLDVLKLPPAGAWRPSLNIATVLTSIQLLMSEPNPDDPLMADISSEFKYNKPAFLKNARQWTEKHARQKQKADEEEMLDNLPEAGDSRVHNSTQKRKASQLVGIEKKFHPDV
binding result: binds
//
binder: Ube2T R84S+K91A+K95A (enzyme) MQRASRLKRELHMLATEPPPGITCWQDKDQMDDLRAQILGGANTPYEKGVFKLEVIIPERYPFEPPQIRFLTPIYHPNIDSAGSICLDVLALPPAGAWRPSLNIATVLTSIQLLMSEPNPDDPLMADISSEFKYNKPAFLKNARQWTEKHARQKQKADEEEMLDNLPEAGDSRVHNSTQKRKASQLVGIEKKFHPDV
binding result: binds
